- Target System: BRAF G469A (Homo sapiens, UniProt P15056, G469A)
- Construct: Horizon Discovery (HCT-116 BRAF−/− cells); host or cells: HCT-116 BRAF−/− cells, clone 34, lentiviral transduction
- Sequence (P15056 whole entry G469A): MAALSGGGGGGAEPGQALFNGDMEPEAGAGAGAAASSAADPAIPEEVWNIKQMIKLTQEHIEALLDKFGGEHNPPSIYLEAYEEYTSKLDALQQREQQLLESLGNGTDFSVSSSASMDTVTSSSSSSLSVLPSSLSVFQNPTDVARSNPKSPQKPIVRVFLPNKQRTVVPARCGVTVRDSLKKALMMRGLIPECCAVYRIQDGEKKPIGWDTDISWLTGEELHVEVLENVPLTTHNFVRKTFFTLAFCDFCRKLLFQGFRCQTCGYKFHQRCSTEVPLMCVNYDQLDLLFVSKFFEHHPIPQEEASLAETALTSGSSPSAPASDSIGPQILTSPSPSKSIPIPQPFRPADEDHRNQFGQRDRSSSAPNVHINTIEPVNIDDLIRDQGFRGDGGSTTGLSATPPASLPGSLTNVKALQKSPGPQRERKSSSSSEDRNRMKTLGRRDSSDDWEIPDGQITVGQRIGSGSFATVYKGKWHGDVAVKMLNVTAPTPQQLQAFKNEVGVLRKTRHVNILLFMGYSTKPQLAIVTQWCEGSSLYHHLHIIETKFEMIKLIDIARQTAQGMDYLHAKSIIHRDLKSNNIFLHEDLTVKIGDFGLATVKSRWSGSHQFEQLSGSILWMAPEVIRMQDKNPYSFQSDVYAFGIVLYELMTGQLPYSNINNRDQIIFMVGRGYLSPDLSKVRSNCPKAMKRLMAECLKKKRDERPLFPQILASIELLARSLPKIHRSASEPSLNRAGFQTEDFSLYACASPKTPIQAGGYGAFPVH
- Procedure Summary: BRAF HiBiT degradation assay, C-terminal HiBiT-tagged BRAF G469A overexpressed in HCT-116 BRAF−/− cells (clone 34), Nano-Glo HiBiT Lytic assay
- Type: cell-based
- Recorded Conditions: BRAF G469A (Class 2), HCT-116 BRAF−/− cells; DC50 at 50% degradation
Below, each of the molecules is paired with its reported DC50 value.

Molecule	Test Value
C[C@@H]1CN(c2ccc(-n3cc(-c4cc(Cl)cc(NS(=O)(=O)N5CC[C@@H](F)C5)c4F)c(-c4ccncc4)n3)nc2)CCN1CC1CCN(c2ccc(C3CCC(=O)NC3=O)cn2)CC1 (mixture of isomers)	< 10 nM

Query :: Given the entry O=C1CCC(c2ccc(N3CCC(CN4CCN(c5ccc(-n6cc(-c7cc(Cl)cc(NS(=O)(=O)N8CCCC8)c7F)c(-c7ccncc7)n6)c(F)c5)CC4)CC3)nc2)C(=O)N1 (racemic) , report its measured DC50.
Result :: 10 to 50 nM

Query :: What do you get for CCCS(=O)(=O)Nc1cc(Cl)cc(-c2cn(-c3ccc(N4CCN(CC5CCN(c6ccc(N7CCC(=O)NC7=O)cc6)CC5)[C@@H](C)C4)cc3)nc2-c2ccncc2)c1F ?
Result :: > 500 nM
